The measurements presented in this section are drawn from patent US20260242735A1.

biological target: human CD33 D112A (human, UniProt P20138 18-364); assay: flow cytometry on HEK293-T, alanine scan
Sequence (P20138 18-364 D112A limits assumed): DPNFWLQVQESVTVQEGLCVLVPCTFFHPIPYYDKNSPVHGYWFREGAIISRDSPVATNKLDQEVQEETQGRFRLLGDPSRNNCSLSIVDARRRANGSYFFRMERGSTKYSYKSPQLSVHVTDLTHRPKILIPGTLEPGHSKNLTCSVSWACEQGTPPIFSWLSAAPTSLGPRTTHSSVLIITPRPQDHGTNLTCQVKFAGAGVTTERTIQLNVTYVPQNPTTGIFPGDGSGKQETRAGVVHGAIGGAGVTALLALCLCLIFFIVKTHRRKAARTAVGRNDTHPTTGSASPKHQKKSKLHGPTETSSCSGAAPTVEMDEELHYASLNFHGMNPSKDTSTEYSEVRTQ
Could you please report measured Mean % WT Binding for the items listed next?

Query: # Mean % WT Binding lookup, item Refmab #3 (antibody, V domains shown, The alanine scan used IgG or Fab) VH: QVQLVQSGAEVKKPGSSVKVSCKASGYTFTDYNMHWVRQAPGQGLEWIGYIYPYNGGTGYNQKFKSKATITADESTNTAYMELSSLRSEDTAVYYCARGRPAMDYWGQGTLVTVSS VL: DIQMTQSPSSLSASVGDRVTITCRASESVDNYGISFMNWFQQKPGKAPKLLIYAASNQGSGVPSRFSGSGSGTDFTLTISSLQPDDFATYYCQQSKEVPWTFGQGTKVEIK
Response: 77.5 % WT binding

Query: Report Mean % WT Binding for Refmab #2 (antibody, V domains shown, The alanine scan used IgG or Fab) VH: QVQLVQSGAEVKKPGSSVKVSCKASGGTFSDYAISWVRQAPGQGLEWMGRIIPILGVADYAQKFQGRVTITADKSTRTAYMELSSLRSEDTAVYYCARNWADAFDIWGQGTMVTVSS VL: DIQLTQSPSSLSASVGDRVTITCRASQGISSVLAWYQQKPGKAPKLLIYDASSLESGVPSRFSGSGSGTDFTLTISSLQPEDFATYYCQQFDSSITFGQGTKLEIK please.
Response: 58.7 % WT binding

Query: Bench note: what Mean % WT Binding did Refmab #4 (antibody, V domains shown, The alanine scan used IgG or Fab) VH: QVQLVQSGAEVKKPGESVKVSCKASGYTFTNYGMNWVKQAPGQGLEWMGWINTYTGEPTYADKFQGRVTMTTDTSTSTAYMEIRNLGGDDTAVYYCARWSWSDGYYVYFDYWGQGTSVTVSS VL: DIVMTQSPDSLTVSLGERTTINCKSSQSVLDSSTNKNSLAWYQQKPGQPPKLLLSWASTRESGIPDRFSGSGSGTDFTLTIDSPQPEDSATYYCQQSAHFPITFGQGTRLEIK show?
Response: 36 % WT binding
